Assay: AGP1-GFP expression modulators, hit retest, confirmation, cell-based, flow cytometry, S. cerevisiae, cherry picks (AID 2273);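 note: median GFP channel fluorescence over the whole cell population gate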
Conditions: S. cerevisiae AGP1-GFP strain, 3 h, at 10 µM
The source made the active and inactive calls.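 Rule for the calls: active = GFP response above 150% of the DMSO level; inconclusive = fewer than 70 events counted for a yeast strain; inactive = the rest.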
Readout: GFP response, % of DMSO

>  <Molecule>
CCOC(=O)c1c(C)oc2c1c(C(c1cccnc1)N1CCOCC1)c(O)c1ccccc12 (configuration not stated)

>  <GFP response, % of DMSO>
104% (inactive)

$$$$
>  <Molecule>
CCc1ccc(-c2csc(NC(=O)COC(=O)CCc3nc4ccccc4s3)n2)cc1

>  <GFP response, % of DMSO>
103% (inactive)

$$$$
>  <Molecule>
Cc1ccc(-n2nnnc2C(Cl)(Cl)c2nnnn2-c2ccc(C)cc2)cc1

>  <GFP response, % of DMSO>
100% (inactive)

$$$$
>  <Molecule>
N=C1/C(=C\c2ccc(Br)o2)C(=O)N=C2SC(CC(=O)N3CCCCC3)=NN12

>  <GFP response, % of DMSO>
104% (inactive)

$$$$
>  <Molecule>
Cc1nn2c(NCCCN3CCOCC3)c3c(nc2c1-c1ccccc1)CCC3

>  <GFP response, % of DMSO>
103% (inactive)

$$$$
>  <Molecule>
Cc1cc(C)c(S(=O)(=O)NCC23C=CC(O2)C2C(=O)N(c4ccccc4)C(=O)C23)c(C)c1 (configuration not stated)

>  <GFP response, % of DMSO>
100% (inactive)

$$$$

Read the next record carefully.
Consider the molecule "COc1ccc2c(c1)C=Cc1ccccc1O2" and give its recorded GFP response, % of DMSO. 95.6% (inactive)

Cited source: PubChem BioAssay
